Tested on: M17—3TAU(P301L) cells
protocol-text: Neuroblastoma tauopathy model: inhibition of TAU-induced cytotoxicity (LDH)
Type: cell-based
condition-label: Homo sapiens, 168 h; inhibition of TAU-induced toxicity (LDH), 7 days differentiation with retinoic acid
Consider the reported EC50 of an entry and match it to a band in lower segment = under 3 nM, middle segment = from 3 nM up to 40 nM, upper segment = 40 nM and over

# compound, assigned-category
rows = [
    ("Cc1cc(-c2nsc(N3CCN(CCc4ccc(F)c(F)c4)CC3)n2)cnn1 [Example 175]", "middle segment"),
    ("Cc1cc(-c2nsc(N3CCN(CCc4ccc(F)cc4)CC3)n2)cnn1 [Example 174]", "middle segment"),
    ("COc1ccc(CCN2CCN(c3nc(-c4cccs4)ns3)CC2)cc1 [Example 44]", "lower segment"),
    ("N#Cc1ccc(-c2nsc(N3CCN(CCc4ccc(F)cc4)CC3)n2)cc1 [Example 110]", "middle segment"),
    ("Cc1ccccc1CN1CCN(c2nc(-c3ccc(Cl)cn3)ns2)CC1 [Example 129]", "upper segment"),
    ("FC(F)Oc1cccc(CCN2CCN(c3nc(-c4ccc(Cl)cc4)ns3)CC2)c1 [Example 69]", "upper segment"),
    ("COc1cccc(C(=O)CN2CCN(c3nc(-c4ccc(Cl)cc4)ns3)CC2)c1 [Example 60]", "upper segment"),
    ("FC(F)(F)c1cccc(CCN2CCN(c3nc(-c4ccc(Cl)cc4)ns3)CC2)c1 [Example 140]", "upper segment"),
    ("COc1ccc(C(F)CN2CCN(c3nc(-c4ccc(Cl)cc4)ns3)CC2)cc1 (stereo not drawn) [Example 64]", "middle segment"),
    ("Fc1ccccc1CCN1CCN(c2nc(-c3ccc(Cl)cc3)ns2)CC1 [Example 28]", "upper segment"),
    ("COc1ccc(CCN2CCN(c3nc(-c4cccc(Cl)c4)ns3)CC2)cn1 [Example 93]", "lower segment"),
    ("COc1ccc(CCN2CCN(c3nc(-c4ccccc4Cl)ns3)CC2)cc1 [Example 58]", "lower segment"),
    ("Fc1ccc(-c2nsc(N3CCN(CCC4CCOCC4)CC3)n2)cc1F [Example 164]", "middle segment"),
    ("Cc1ccc(-c2nsc(N3CCN(CCCc4ccccc4)CC3)n2)cc1 [Example 155]", "upper segment"),
    ("COc1ccccc1CCN1CCN(c2nc(-c3ccc(Cl)cc3)ns2)CC1 [Example 27]", "middle segment"),
    ("Cc1ccccc1CN1CCN(c2nc(-c3cncc(Cl)c3)ns2)CC1 [Example 151]", "middle segment"),
    ("Clc1ccc(CCN2CCN(c3nc(-c4cncc(Cl)c4)ns3)CC2)cc1 [Example 132]", "middle segment"),
    ("Fc1ccc(-c2nsc(N3CCN(CCc4cccc(C(F)(F)F)c4)CC3)n2)cc1F [Example 158]", "upper segment"),
    ("Cc1ccc(-c2nsc(N3CCN(Cc4ccccc4C)CC3)n2)cn1 [Example 150]", "upper segment"),
    ("COc1cc(CCN2CCN(c3nc(-c4ccc(C#N)cc4)ns3)CC2)ccn1 [Example 116]", "middle segment"),
    ("COc1ccc(CCN2CCN(c3nc(-c4ccc(F)cc4OC)ns3)CC2)cc1 [Example 67]", "lower segment"),
    ("COc1ccc(CCN2CCN(c3nc(-c4cnc(C)nc4)ns3)CC2)cc1 [Example 179]", "middle segment"),
    ("Clc1cncc(-c2nsc(N3CCN(CCc4ccccc4)CC3)n2)c1 [Example 130]", "lower segment"),
    ("N#Cc1cccc(-c2nsc(N3CCN(CCc4ccc(F)cc4)CC3)n2)c1 [Example 111]", "middle segment"),
    ("COc1ccc(CCN2CCN(c3nc(-c4ccc(OC(F)(F)F)cc4)ns3)CC2)cc1 [Example 37]", "lower segment"),
    ("COc1cc(CCN2CCN(c3nc(-c4cccc(Cl)c4)ns3)CC2)ccn1 [Example 89]", "lower segment"),
    ("COc1ccc(CCN2CCN(c3nc(-c4ccncc4)ns3)CC2)cc1 [Example 43]", "middle segment"),
    ("FC(F)(F)c1cccc(CCN2CCN(c3nc(-c4cccc(Cl)c4)ns3)CC2)c1 [Example 142]", "middle segment"),
    ("COc1cccc(C(F)CN2CCN(c3nc(-c4ccc(Cl)cc4)ns3)CC2)c1 (stereo not drawn) [Example 65]", "upper segment"),
    ("COc1cccc(-c2nsc(N3CCN(Cc4ccccc4C)CC3)n2)c1 [Example 13]", "upper segment"),
    ("COc1ccc(CCN2CCN(c3nc(-c4cncc(Cl)c4)ns3)CC2)cc1 [Example 91]", "lower segment"),
    ("COc1ccc(CCN2CCN(c3nc(-c4cccc(C#N)c4)ns3)CC2)cc1 [Example 81]", "lower segment"),
    ("COc1cc(CCN2CCN(c3nc(-c4cc(Cl)ccn4)ns3)CC2)ccn1 [Example 127]", "upper segment"),
    ("Fc1ccc(CCN2CCN(c3nc(-c4ccc(F)c(F)c4)ns3)CC2)cc1F [Example 136]", "middle segment"),
]

* * *

Tested on: M17—3TAU(P301L) cells
protocol-text: Neuroblastoma tauopathy model: inhibition of TAU-induced cytotoxicity (LDH)
Format: cell-based
condition-label: Homo sapiens, 168 h; inhibition of TAU-induced toxicity (LDH), 7 days differentiation with retinoic acid
Simple rule here: EC50 less than 3 nM is criterion met, otherwise criterion not met.

# compound, assigned-category
records = [
    ("Cc1ccc(-c2nsc(N3CCN(Cc4ccc(Cl)cc4Cl)CC3)n2)cc1 [Example 3]", "criterion not met"),
    ("C=C(CN1CCN(c2nc(-c3ccc(Cl)cc3)ns2)CC1)c1ccc(OC)cc1 [Example 59]", "criterion not met"),
    ("FC(F)Oc1ccc(CCN2CCN(c3nc(-c4ccc(Cl)cc4)ns3)CC2)cc1 [Example 70]", "criterion not met"),
    ("Fc1ccc(CCN2CCN(c3nc(-c4ccc(F)c(F)c4)ns3)CC2)cc1 [Example 103]", "criterion not met"),
    ("Fc1ccc(CCN2CCN(c3nc(-c4ccc(Cl)cc4)ns3)CC2)cc1 [Example 24]", "criterion met"),
    ("Fc1ccc(-c2nsc(N3CCN(CCc4ccccc4)CC3)n2)cc1F [Example 101]", "criterion not met"),
    ("Fc1cccc(-c2nsc(N3CCN(CCC4CCCCC4)CC3)n2)c1 [Example 154]", "criterion not met"),
    ("COc1ccc(CCN2CCN(c3nc(-c4ccc(C)cc4)ns3)CC2)cc1 [Example 19]", "criterion met"),
    ("COc1ccc(CCN2CCN(c3nc(-c4ccc(C)nc4)ns3)CC2)cc1 [Example 95]", "criterion not met"),
]

* * *

Let's look at some compounds and their measured microsomal CLint.
protocol-text: Microsomal stability assay (intrinsic clearance), human liver microsomes
Format: in vitro ADME
condition-label: human in vitro microsomes, first value of Hum/Rat pair

# compound, microsomal CLint / µL/min/mg
data = [
    ("Fc1ccc(Cc2nsc(N3CCN(Cc4ccc5c(c4)OCO5)CC3)n2)cc1 [reference compound]", 39),
    ("Cc1ccc(-c2nsc(N3CCN(Cc4ccc5c(c4)OCO5)CC3)n2)cc1", 19),
    ("Fc1cccc(-c2nsc(N3CCN(CCc4ccc(Cl)cc4)CC3)n2)c1", 12),
    ("O=S(=O)(c1ccc(OC(F)(F)F)cc1)N1CCN(c2nc(Cc3ccc(F)cc3)ns2)CC1 [reference compound]", 46),
]

* * *

Let's look at some compounds and their measured EC50.
Test system: M17—3TAU(P301L) cells
protocol-text: Neuroblastoma tauopathy model: inhibition of TAU-induced cytotoxicity (LDH)
Assay type: cell-based
condition-label: Homo sapiens, 168 h; inhibition of TAU-induced toxicity (LDH), 7 days differentiation with retinoic acid
endpoint: EC50 (µM)

# compound, result
records = [
    ("Clc1cncc(-c2nsc(N3CCN(CCC4CCOCC4)CC3)n2)c1", 0.0007),
    ("COc1ccc(CCN2CCN(c3nc(-c4ccc(Cl)cc4)ns3)CC2)cn1", 0.0028),
    ("Cc1ccc(-c2nsc(N3CCN(CCc4ccc(Cl)c(Cl)c4)CC3)n2)cc1", 0.396),
    ("COc1ccccc1CCCN1CCN(c2nc(-c3ccc(Cl)cc3)ns2)CC1", 0.0435),
    ("FC(F)(F)Oc1cccc(CCN2CCN(c3nc(-c4ccc(Cl)cc4)ns3)CC2)c1", 0.211),
    ("Cc1cc(-c2nsc(N3CCN(CCc4ccccc4)CC3)n2)cnn1", 0.0029),
    ("COc1cccc(CCN2CCN(c3nc(-c4ccc(F)cc4OC)ns3)CC2)c1", 0.0015),
    ("Cc1cc(-c2nsc(N3CCN(CCc4ccccc4)CC3)n2)ccn1", 0.0024),
    ("COc1ccc(C(C)CN2CCN(c3nc(-c4ccc(Cl)cc4)ns3)CC2)cc1 (stereo not drawn)", 0.0943),
    ("COc1ccc(CCN2CCN(c3nc(-c4cc(Cl)cc(Cl)c4)ns3)CC2)cc1", 0.0312),
    ("COc1ccc(CCN2CCN(c3nc(-c4cc(Cl)ccn4)ns3)CC2)cc1", 0.003),
    ("COc1ccc(CCN2CCN(c3nc(-c4ccc(Cl)cc4F)ns3)CC2)cc1", 0.0055),
    ("COc1cccc(CCN2CCN(c3nc(-c4ccc(C(F)(F)F)nc4)ns3)CC2)c1", 0.147),
    ("CC(C)Oc1ccc(CCN2CCN(c3nc(-c4ccc(Cl)cc4)ns3)CC2)cc1", 0.429),
    ("Clc1cccc(-c2nsc(N3CCN(CCc4ccccc4)CC3)n2)c1", 0.004),
    ("COc1ccc(CCCN2CCN(c3nc(-c4ccc(Cl)cc4)ns3)CC2)cc1", 0.327),
    ("Fc1ccc(-c2nsc(N3CCN(CCC4CCCCC4)CC3)n2)cc1F", 0.0059),
    ("Clc1ccnc(-c2nsc(N3CCN(CCc4ccccc4)CC3)n2)c1", 0.0161),
]
